experimental-target: UniProt:P61292
Sequence (P61292 2-327 limits assumed): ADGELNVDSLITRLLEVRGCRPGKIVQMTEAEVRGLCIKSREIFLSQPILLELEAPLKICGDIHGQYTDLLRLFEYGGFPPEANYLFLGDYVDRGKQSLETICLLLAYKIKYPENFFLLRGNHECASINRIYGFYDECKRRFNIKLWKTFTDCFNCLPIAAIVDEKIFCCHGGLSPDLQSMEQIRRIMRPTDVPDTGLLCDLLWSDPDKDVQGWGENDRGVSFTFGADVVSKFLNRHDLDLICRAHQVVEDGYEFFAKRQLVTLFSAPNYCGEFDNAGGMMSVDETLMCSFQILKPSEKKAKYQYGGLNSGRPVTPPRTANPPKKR
Each entry below carries its reported pIC50.
In simple prose, pIC50 is minus the logarithm base ten of a concentration in moles per litre.

The following compounds have reported results that may help.
compound="N=C(N)Nc1nc(-c2ccc(OC(=O)c3ccc(-c4ccccc4)cc3)cc2)cs1 [13a]" endpoint_value=4.13
compound="Nc1nc(-c2ccc(OC(=O)c3ccc(-c4ccccc4)cc3)cc2)cs1 [14a]" endpoint_value=3.31
compound="COc1cccc(-c2ccc(C(=O)Oc3ccc(-c4csc(NC(=N)N)n4)cc3)cc2)c1 [10a]" endpoint_value=4.92

Now look at this one.
// sample COc1ccc(-c2csc(N=C(N)N)n2)cc1 [13m] , its pIC50 was 3.08
